Source listed as paper PMC3124361.

experimentDescription: In vitro metabolism in mouse liver microsomes
Type: in vitro ADME
conditions: predicted hepatic extraction ratio
Would you kindly list Eh Mouse for each of these molecules?
// keep it numeric: no unit symbol after the value

Please give the measured Eh Mouse for this molecule: Cc1cc(NC2CCc3ccccc3C2)n2ncnc2n1 (centres unmarked)
0.61

Another molecule to check: C#Cc1ccc(Nc2cc(C)nc3ncnn23)cc1
0.54

What would you report for Cc1cc(NC2Cc3ccccc3C2)n2ncnc2n1 ?
0.59

Entry to check: C=Cc1ccc(Nc2cc(C)nc3ncnn23)cc1
0.88

----------
experimentDescription: In vitro metabolism in mouse liver microsomes
Type: in vitro ADME
conditions: microsomes, pH 7.4
measuredQuantity: microsomal CLint at 1 μM

I'd like to know its microsomal CLint at 1 μM. The compound in question is Cc1cc(Nc2ccc(SC(F)(F)F)cc2)n2ncnc2n1 [Compound 20]
> 25 µL/min/mg

Also Cc1cc(Nc2ccc(C(C)(C)C)cc2)n2ncnc2n1 [Compound 15] , if possible.
> 30 µL/min/mg

Same lookup for Cc1cc(NC2CCc3ccccc3C2)n2ncnc2n1 (stereo not drawn) [Compound 49] , please.
> 25 µL/min/mg
